Each recorded value in this set is attributed to the supplement of paper PMC8728848.

Molecular target: Gal(a1-4)Gal(b1-3)GlcNAc(b1-2)Man(a1-3)[Gal(a1-4)Gal(b1-3)GlcNAc(b1-2)Man(a1-6)]Man(b1-4)GlcNAc(b1-4)GlcNAc
Experiment: glycan array binding signal (z-score within array); higher = stronger binding
Details: glycan notation: IUPAC condensed, linker removed
Many of the other results were omitted from the sample, so the strongest signals are more common in it than they were.
parameter: glycan array binding signal (z-score)

INSERT INTO results (binder, parameter, test_value) VALUES
  ('PGP3 (Chlamydia trachomatis), P0CE18 (protein) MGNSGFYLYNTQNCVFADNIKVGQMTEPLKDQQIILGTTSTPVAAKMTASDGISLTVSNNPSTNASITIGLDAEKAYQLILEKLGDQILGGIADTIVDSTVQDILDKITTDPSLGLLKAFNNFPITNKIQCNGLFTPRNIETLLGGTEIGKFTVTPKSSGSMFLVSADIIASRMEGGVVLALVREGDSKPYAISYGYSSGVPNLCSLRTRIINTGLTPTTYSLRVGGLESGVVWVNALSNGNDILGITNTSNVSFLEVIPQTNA', 'glycan array binding signal (z-score)', 3.06),
  ('Epa9 (Candida glabrata), CAGL0A01386g (protein) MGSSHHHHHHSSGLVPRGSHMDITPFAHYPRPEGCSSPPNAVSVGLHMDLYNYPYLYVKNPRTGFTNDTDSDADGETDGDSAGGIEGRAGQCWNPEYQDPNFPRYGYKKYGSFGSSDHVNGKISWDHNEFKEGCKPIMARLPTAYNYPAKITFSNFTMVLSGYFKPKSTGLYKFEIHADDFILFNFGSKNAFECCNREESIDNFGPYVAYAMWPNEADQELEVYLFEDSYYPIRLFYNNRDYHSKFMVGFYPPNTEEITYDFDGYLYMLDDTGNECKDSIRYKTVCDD', 'glycan array binding signal (z-score)', 4.05),
  ('SJCP1084 (Schistosoma japonicum) (protein) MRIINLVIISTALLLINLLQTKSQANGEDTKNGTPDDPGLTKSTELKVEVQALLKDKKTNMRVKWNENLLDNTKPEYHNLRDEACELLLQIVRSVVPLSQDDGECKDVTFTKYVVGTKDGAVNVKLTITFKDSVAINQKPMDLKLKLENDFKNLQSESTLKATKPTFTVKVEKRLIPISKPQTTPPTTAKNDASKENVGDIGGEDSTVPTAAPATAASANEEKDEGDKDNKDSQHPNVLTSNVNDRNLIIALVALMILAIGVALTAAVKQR', 'glycan array binding signal (z-score)', 3.06),
  ('FimA-N3 (Actinomyces oris) (protein) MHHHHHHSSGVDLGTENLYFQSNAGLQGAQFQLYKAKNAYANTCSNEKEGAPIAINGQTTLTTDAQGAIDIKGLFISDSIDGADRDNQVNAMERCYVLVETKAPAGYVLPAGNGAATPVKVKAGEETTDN', 'glycan array binding signal (z-score)', -0.264),
  ('PA-IL (Pseudomonas aeruginosa), Q05097 (protein) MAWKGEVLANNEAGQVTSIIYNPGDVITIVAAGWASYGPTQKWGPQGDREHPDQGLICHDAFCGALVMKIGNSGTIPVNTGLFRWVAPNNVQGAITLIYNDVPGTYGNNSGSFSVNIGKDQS', 'glycan array binding signal (z-score)', 7.29),
  ('RbmA (Vibrio cholerae), A0A2H4NFB8 (protein) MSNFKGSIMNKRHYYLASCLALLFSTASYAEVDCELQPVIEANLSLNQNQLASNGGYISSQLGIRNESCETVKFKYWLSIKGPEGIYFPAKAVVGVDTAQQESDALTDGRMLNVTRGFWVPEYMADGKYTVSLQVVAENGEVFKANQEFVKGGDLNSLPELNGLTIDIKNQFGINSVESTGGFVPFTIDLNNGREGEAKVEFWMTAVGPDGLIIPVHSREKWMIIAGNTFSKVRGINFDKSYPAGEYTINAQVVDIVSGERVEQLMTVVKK', 'glycan array binding signal (z-score)', 0.508),
  ('3FTT (Staphylococcus aureus), Q5HCZ5 (protein) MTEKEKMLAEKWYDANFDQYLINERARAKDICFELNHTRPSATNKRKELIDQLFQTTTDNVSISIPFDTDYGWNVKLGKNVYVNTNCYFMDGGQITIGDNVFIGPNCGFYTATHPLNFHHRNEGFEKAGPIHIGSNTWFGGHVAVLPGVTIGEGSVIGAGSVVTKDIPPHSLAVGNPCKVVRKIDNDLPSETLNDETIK', 'glycan array binding signal (z-score)', -0.237),
  ('Epa13 (Candida glabrata) (protein) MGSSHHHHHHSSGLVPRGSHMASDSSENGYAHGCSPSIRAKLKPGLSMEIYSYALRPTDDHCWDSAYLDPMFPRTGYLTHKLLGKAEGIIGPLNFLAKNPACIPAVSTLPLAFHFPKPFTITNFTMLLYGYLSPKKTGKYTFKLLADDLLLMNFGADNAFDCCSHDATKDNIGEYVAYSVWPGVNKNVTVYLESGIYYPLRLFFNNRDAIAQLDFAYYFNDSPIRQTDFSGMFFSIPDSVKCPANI', 'glycan array binding signal (z-score)', 4.04),
  ('Epa6 (Candida glabrata), Q6DTM7_CANGB (protein) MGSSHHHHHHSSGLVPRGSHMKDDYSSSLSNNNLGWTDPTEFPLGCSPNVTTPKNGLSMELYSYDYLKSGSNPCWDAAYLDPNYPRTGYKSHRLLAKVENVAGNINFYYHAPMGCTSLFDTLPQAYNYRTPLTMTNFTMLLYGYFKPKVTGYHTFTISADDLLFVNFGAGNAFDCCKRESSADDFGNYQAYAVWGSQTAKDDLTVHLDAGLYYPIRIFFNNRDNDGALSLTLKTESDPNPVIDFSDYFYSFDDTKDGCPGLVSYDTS', 'glycan array binding signal (z-score)', 6.23),
  ('SAG3 (Toxoplasma gondii), Q9BJ39 (protein) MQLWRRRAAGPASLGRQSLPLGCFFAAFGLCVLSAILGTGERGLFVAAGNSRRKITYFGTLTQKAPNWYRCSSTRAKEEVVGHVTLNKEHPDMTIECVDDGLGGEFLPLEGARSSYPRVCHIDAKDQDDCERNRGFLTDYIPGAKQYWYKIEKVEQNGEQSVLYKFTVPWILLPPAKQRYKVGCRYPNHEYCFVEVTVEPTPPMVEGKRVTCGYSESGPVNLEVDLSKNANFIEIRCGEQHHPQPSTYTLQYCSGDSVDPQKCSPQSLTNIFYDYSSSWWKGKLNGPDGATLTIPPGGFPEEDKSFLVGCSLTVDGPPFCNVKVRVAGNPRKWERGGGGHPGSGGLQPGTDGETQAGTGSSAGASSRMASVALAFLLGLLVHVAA', 'glycan array binding signal (z-score)', -0.051),
  ('Ecp6 (Cladosporium fulvum), B3VBK9 (protein) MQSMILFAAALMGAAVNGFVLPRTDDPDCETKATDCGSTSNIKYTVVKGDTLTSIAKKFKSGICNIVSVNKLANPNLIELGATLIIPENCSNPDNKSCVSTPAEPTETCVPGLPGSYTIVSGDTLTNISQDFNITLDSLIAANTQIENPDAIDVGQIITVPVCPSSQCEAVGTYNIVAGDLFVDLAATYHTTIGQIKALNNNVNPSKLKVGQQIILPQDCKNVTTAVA', 'glycan array binding signal (z-score)', -0.099);
